Test system: mice
Assay: Neuropharmacological Assay (SmartCube)
Assay type: in vivo
Conditions: mice, i.p. 15 min before test, most efficacious dose(s) of 3 doses
measure: SD: sedative hypnotic (SmartCube probability)

Past entries and their recorded results:
CNC[C@H]1OC[C@@H](C)c2ccccc21: + (LOQ≤ + <5%)
CNC[C@H]1OCCc2ccc3c(c21)OC(F)(F)O3: + (LOQ≤ + <5%)
NC[C@@H]1OCCc2ccc3c(c21)OCO3: + (LOQ≤ + <5%)
CN(C)C[C@@H]1OCCc2cccc(F)c21: ++ (5%≤ ++ <25%)
CNC[C@@H]1OCCc2ccc3c(c21)OCO3: + (LOQ≤ + <5%)

Qu. // SD: sedative hypnotic (SmartCube probability) lookup, key: CNC[C@H]1OCCc2cccc(C#N)c21
Ans. + (LOQ≤ + <5%)

====

Test system: mice
Experiment: Neuropharmacological Assay (SmartCube)
Format: in vivo
Settings: mice, i.p. 15 min before test, most efficacious dose(s) of 3 doses
measure: SD: sedative hypnotic (SmartCube probability)

Past entries and their recorded results:
CNC[C@@H]1OCCc2ccc3c(c21)COC3: ++ (5%≤ ++ <25%)
CNC[C@H]1OCCc2ccc3c(c21)CCO3: + (LOQ≤ + <5%)
CNC[C@@H]1OCCc2ccc(Cl)cc21: ++ (5%≤ ++ <25%)
NC[C@@H]1OCCc2cccc(Cl)c21 [Example 71, (R)-(8-chloroisochroman-1-yl)methanamine]: + (LOQ≤ + <5%)
CNC[C@H]1OCCc2c(C#N)cccc21: ++ (5%≤ ++ <25%)
CNC[C@H]1OCCc2cc(F)ccc21: ++ (5%≤ ++ <25%)

Qu. mice / SD: sedative hypnotic (SmartCube probability) / CNC[C@H]1OCCc2cccc(F)c21 : value?
Ans. ++ (5%≤ ++ <25%)

Qu. Further, for CNC[C@@H]1OCc2c(Cl)cccc21 ?
Ans. ++ (5%≤ ++ <25%)

====

Test system: mice
Assay: Neuropharmacological Assay (SmartCube)
Format: in vivo
Details: mice, i.p. 15 min before test, most efficacious dose(s) of 3 doses
measure: AG: analgesic (SmartCube probability)

Past entries and their recorded results:
CNC[C@H]1OCC(F)(F)c2ccccc21: ++ (5%≤ ++ <25%)
CNC[C@@H]1OC[C@H](O)c2ccc3c(c21)OCO3 (single isomer, unassigned): + (LOQ≤ + <5%)
CNC[C@H]1OCCc2cccc(F)c21: ++ (5%≤ ++ <25%)
CNC[C@@H]1OC[C@@H](O)c2ccc3c(c21)OCO3 (single isomer, unassigned): + (LOQ≤ + <5%)
CNC[C@@H]1OC[C@H](F)c2ccccc21: ++ (5%≤ ++ <25%)

Qu. // AG: analgesic (SmartCube probability) lookup, key: NC[C@@H]1OCCc2cccc(F)c21 [Example 35, (R)-(8-fluoroisochroman-1-yl)methanamine]
Ans. ++ (5%≤ ++ <25%)

Qu. Further, for CNC[C@@H]1OC[C@@H](C)c2ccccc21 ?
Ans. + (LOQ≤ + <5%)

Qu. Further, for CNC[C@@H]1OCCc2c(OC)cccc21 ?
Ans. + (LOQ≤ + <5%)

Qu. Further, for CNC[C@H]1OCc2c(Cl)cccc21 ?
Ans. ++ (5%≤ ++ <25%)

Qu. Further, for CNC[C@@H]1OCCc2c(C#N)cccc21 ?
Ans. + (LOQ≤ + <5%)

Qu. Further, for CNC[C@@H]1OCCc2c1ccc1c2OCO1 ?
Ans. ++ (5%≤ ++ <25%)

Qu. Further, for CNC[C@H]1OCCc2c(Cl)cccc21 ?
Ans. + (LOQ≤ + <5%)

Qu. Further, for NC[C@@H]1OCCc2c(Cl)cccc21 [Example 67, (R)-(5-chloroisochroman-1-yl)methanamine] ?
Ans. + (LOQ≤ + <5%)

Qu. Further, for Cc1cccc2c1[C@H](CN)OCC2 [Example 75, (R)-(8-methylisochroman-1-yl)methanamine] ?
Ans. ++ (5%≤ ++ <25%)

Qu. Further, for CN(C)C[C@@H]1OCCc2cccc(F)c21 ?
Ans. + (LOQ≤ + <5%)

Qu. Further, for CNC[C@@H]1OCCc2cc(F)ccc21 ?
Ans. ++ (5%≤ ++ <25%)

Qu. Further, for CNC[C@H]1OCCc2c1cccc2C(F)(F)F ?
Ans. ++ (5%≤ ++ <25%)

Qu. Further, for NC[C@@H]1OCCc2c(F)cccc21 [Example 29, (R)-(5-fluoroisochroman-1-yl)methanamine] ?
Ans. ++ (5%≤ ++ <25%)

Qu. Further, for Fc1cccc2c1[C@H](CNC1CCC1)OCC2 ?
Ans. + (LOQ≤ + <5%)

Where do these numbers come from? They come from patent US10196403B2.
